Measured values drawn from PubChem BioAssay (NCI) for this set.

For each entry below, report its TGI value.
# System: PC-3 prostate
# PROTOCOL: NCI tumour cell line growth inhibition, 48 h

Task: Param item = CSc1nc2c(=O)n(-c3ccccc3)c(=S)n(-c3ccccc3)c2s1 ; retrieve measured TGI.
Output: > 100 µM

Task: Param item = Oc1ccc(O)c(CNc2ccccc2)c1 ; retrieve measured TGI.
Output: 30 µM

Task: Param item = COc1ccc(/C=C/NC=O)cc1 ; retrieve measured TGI.
Output: > 100 µM

Task: Param item = C=CC1=C(C)C2=NC1=CC1=NC(=CC3=C(C)C4=C(O)C(C(=O)OC)C(=C5NC(=C2)C(C)C5CCC(=O)OC)C4=N3)C(CC)=C1C (stereo not given) ; retrieve measured TGI.
Output: > 100 µM

Task: Param item = Cc1ccc(S(=O)(=O)N2CCNCCN(S(=O)(=O)c3ccc(C)cc3)CCN(S(=O)(=O)c3ccc(C)cc3)CC2)cc1 ; retrieve measured TGI.
Output: > 100 µM
